- Assayed target: DnaE S765L (Staphylococcus aureus, UniProt Q9F1K0 1-1065, S765L)
- Test summary: fluorescence anisotropy; Anisotropy: 5 nM DNA, 25 mM HEPES pH 7.5, 50 mM potassium glutamate, 2 mM DTT, 0.5 mg/mL BSA, 24 °C. Cryo-EM: 20 mM PIPES pH 7.0, 50 mM potassium glutamate, 5 mM MgCl2, 2 mM DTT, 0.01% Tween-20
- Cond: protein: recombinant; label: 5'-Cy3 on primer (strand 1); 24 bp duplex, 5' overhang 30 nt on template
Metric: Kd (nM)
Respond with the bare value in nM.

Challenge: Find the recorded Kd belonging to primed DNA substrate (anisotropy) (dsDNA) DNA 1: GGTAACGCCAGGGTTTTCCCAGTC DNA 2: CGCTCACTGGCCGTCGTTTTACAACGTCGTGACTGGGAAAACCCTGGCGTTACC and report it.
Response given: 85
